Biological target: Platelet-activating factor receptor (Homo sapiens, UniProt P25105)
Sequence (P25105 whole entry): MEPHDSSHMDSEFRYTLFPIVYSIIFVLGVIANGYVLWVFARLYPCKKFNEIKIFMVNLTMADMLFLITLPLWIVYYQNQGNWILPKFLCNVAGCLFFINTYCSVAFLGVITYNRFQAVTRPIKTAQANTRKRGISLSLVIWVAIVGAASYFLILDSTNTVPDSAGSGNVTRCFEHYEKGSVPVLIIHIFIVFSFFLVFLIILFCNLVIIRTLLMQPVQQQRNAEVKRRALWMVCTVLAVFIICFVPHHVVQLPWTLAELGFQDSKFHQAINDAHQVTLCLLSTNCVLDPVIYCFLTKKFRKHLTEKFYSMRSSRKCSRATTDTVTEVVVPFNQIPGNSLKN
Test: Antagonist activity at human PAFR expressed in HEK293 cells assessed as inhibition of PAF C-16 ligand induced receptor activation preincubated for 90 mins followed by PAF ligand addition and measured after 60 mins by HTRF IP1 assay
metric.name: IC50 (nM)

{"entry.smiles": "Cc1nnc2n1-c1sc3c(c1[C@@H](c1ccccc1Cl)NC2)C[C@@H](C(=O)NC1CCC(F)(F)CC1)C3", "target.under.test": "Platelet-activating factor receptor (Homo sapiens, UniProt P25105)", "reading.unit": "nM", "IC50": 1.3}
{"entry.smiles": "Cc1nnc2n1-c1sc3c(c1[C@H](c1ccccc1Cl)NC2)C[C@@H](C(=O)NCc1ccccc1)C3", "target.under.test": "Platelet-activating factor receptor (Homo sapiens, UniProt P25105)", "reading.unit": "nM", "IC50": 1.1}

[P] Cc1nnc2n1-c1sc3c(c1[C@@H](c1ccccc1Cl)NC2)C[C@@H](C(=O)NC1(c2ccc(Cl)cn2)CC1)C3
[Q] Cc1nnc2n1-c1sc3c(c1[C@@H](c1ccccc1Cl)NC2)C[C@@H](C(=O)NCc1ccc(C(F)(F)F)cc1)C3
// task: argmin of IC50 over [ P , Q ] Provide the label of your selected option as the answer.
Q
(Q: 0.4 nM, P: 1.3 nM)
